Target: T1, His-human LIGHT (human)
T1 chain: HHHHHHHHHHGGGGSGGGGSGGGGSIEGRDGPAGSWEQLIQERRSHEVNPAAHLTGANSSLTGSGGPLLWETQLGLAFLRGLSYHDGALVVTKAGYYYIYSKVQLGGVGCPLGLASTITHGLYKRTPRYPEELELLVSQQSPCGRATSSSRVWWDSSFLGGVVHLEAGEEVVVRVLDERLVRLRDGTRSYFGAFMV
Experiment: cell-based or functional assay
Each entry below lists one item and its recorded IC50, HVEM NF-κB luciferase reporter (293T-HVEM-NF-κB-Luc), free LIGHT value.
Lab book: enter the figure in µg/mL, no units written.

BINDER | MEASUREMENT
LT-m85 (antibody, human IgG4, V domains shown) VH: EVQLQQSGAELVKPGASVKMSCKASGYTFTSYNVHWVKQTPGQGLEWIGAVYPGNGDTSYNQKFKGKATLTADKSSNTAYMQLSSLTSEDSAVYYCARGSYYYTSSYFDHWGQGTTLTVSS VL: DIVLTQSPASLAVSLGQRATISCKASQSVDFDGDSYMNWYQQKPGQPPKLLIYTASNLESGIPARFTGSGSGTDFTLNIHPVEEEDAATYYCQQSYEDPFTFGSGTKLEIK | 0.124
LT-m33 (antibody, human IgG4, V domains shown) VH: QVQLKQSGAELVKPGASVRLSCKTSGYTFTNYYVYWVKQRPGQGLEWIGEINPTNGDPNFNEKFKSKATLTVDKSSSTAYMHLSSLTSEDSAVYYCTRSNWDYGNAMDFWGQGTSVTVSS VL: DIVMTQSPASLAVSLGQRATISCKASQSVDFDGDGYMNWYQQKPGQPPKLLIYKASHLDSGIPARFSGSGSGTDFTLNIHPVEEEDAATYYCQQSIEDPLTFGDGTRLEIK | 0.207

Could you now consider this next binder?
GET /values?readout=IC50, HVEM NF-κB luciferase reporter (293T-HVEM-NF-κB-Luc), free LIGHT&item= LT-m55 (antibody, human IgG4, V domains shown) VH: EVQLQQSGAELVKPGASVKLSCKASGYTFATYYMYWVKQRPGQGLEWIGEINPTNGGTIFNEKFKTKATLTVDKSSSTAYMQLSSLTSEDSAVYYCARGNWPYWSFDVWGAGTSVTVSS VL: DIVLTQSPASLAVSLGQRATISCKASQSVDFDGDNYMNWYQQKPGQPPKLLIYAASNLDSGIPARFSASGSGTDFTLNIHPVEEEDAATYYCQQSIEDPWTFGGGTKLEIK
0.264
